Would you kindly list MIC for each of these compounds?
Test system: Escherichia coli
TEST_METHOD_NOTES: microbe, parasite or virus in culture
Assay type: functional
Description: Antibacterial activity against Escherichia coli 1507E
Entry rule: numbers only, all in µg/mL.

Give MIC for `CNS(=O)(=O)CCNC(=O)[C@@H]1C[C@H](SC2=C(C(=O)O)N3C(=O)[C@H]([C@@H](C)O)[C@H]3[C@H]2C)CN1`
0.025

State its MIC for this compound: `C[C@@H](O)[C@H]1C(=O)N2C(C(=O)O)=C(S[C@@H]3CN[C@H](C(=O)NCCS(=O)(=O)N4CCCC4)C3)[C@H](C)[C@H]12`
0.013

Please supply the value of reported MIC for the item `C=CCNS(=O)(=O)CCNC(=O)[C@@H]1C[C@H](SC2=C(C(=O)O)N3C(=O)[C@H]([C@@H](C)O)[C@H]3[C@H]2C)CN1`
0.025

Look up and report measured MIC for this entry: `COC(=O)CCNC(=O)[C@@H]1C[C@H](SC2=C(C(=O)O)N3C(=O)[C@H]([C@@H](C)O)[C@H]3[C@H]2C)CN1`
0.025

For the compound `C[C@@H](O)[C@H]1C(=O)N2C(C(=O)O)=C(S[C@@H]3CN[C@H](C(=O)NCCS(=O)(=O)N(C)C)C3)[C@H](C)[C@H]12` , give its measured MIC value.
0.025

State, in one line, measured MIC of `C[C@@H](O)[C@H]1C(=O)N2C(C(=O)O)=C(S[C@@H]3CN[C@H](C(=O)NCCS(N)(=O)=O)C3)[C@H](C)[C@H]12`
0.013

Annotate the compound C[C@@H](O)[C@H]1C(=O)N2C(C(=O)O)=C(SCCNC=N)C[C@H]12 [IMIPENEM ANHYDROUS] with its measured MIC.
0.195

Supply measured MIC of `C[C@@H](O)[C@H]1C(=O)N2C(C(=O)O)=C(S[C@@H]3CN[C@H](C(=O)NCCC(N)=O)C3)[C@H](C)[C@H]12` in your reply.
0.025

Tell us which MIC value is on record for `C[C@@H](O)[C@H]1C(=O)N2C(C(=O)O)=C(S[C@@H]3CN[C@H](C(=O)NCCS(=O)(=O)N4CCOCC4)C3)[C@H](C)[C@H]12`
0.049

Provide measured MIC value, entry: `C[C@@H](O)[C@H]1C(=O)N2C(C(=O)O)=C(S[C@@H]3CN[C@H](C(=O)NCCC(=O)N(C)C)C3)[C@H](C)[C@H]12`
0.025

// fetch MIC given entry `CNC(=O)CCNC(=O)[C@@H]1C[C@H](SC2=C(C(=O)O)N3C(=O)[C@H]([C@@H](C)O)[C@H]3[C@H]2C)CN1`
0.025

Output measured MIC for this item: `C[C@@H](O)[C@H]1C(=O)N2C(C(=O)O)=C(S[C@@H]3CN[C@H](C(=O)NCCC(=O)N4CCCC4)C3)[C@H](C)[C@H]12`
0.025

Annotate the compound `C[C@@H](O)[C@H]1C(=O)N2C(C(=O)O)=C(S[C@@H]3CN[C@H](C(=O)NCCC(=O)O)C3)[C@H](C)[C@H]12` with its measured MIC.
0.049
